test-method-notes: NCI Yeast Anticancer Drug Screen. Data for the cln2 rad14 strain (AID 165);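 note: 0% = growth equal to vehicle treated cultures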
study-conditions: S. cerevisiae cln2 rad14 strain, at 5.0 µM (retest, dose inferred, filed as 0.5), active compounds read high
The panel holds about 79,000 compounds, 15% with a hit somewhere; the sample as a whole holds those more often.
value-type: growth inhibition (%)
Answers are plain numbers, in %.

# example entries with known answers
- compound: "N#C/C(=C\\NC(=S)Nc1cc(Cl)ccc1Cl)c1nc2ccccc2s1"
  growth inhibition [%]: 20
- compound: "NNc1ncc2c(n1)-c1ccccc1OC2"
  growth inhibition [%]: 21
- compound: "O=C1C(C(O)(C(F)(F)Cl)C(F)(F)Cl)CCC1C(O)(C(F)(F)Cl)C(F)(F)Cl (configuration not stated)"
  growth inhibition [%]: 94

I'm hoping you can list growth inhibition for every compound here, please.
1. CCOP(=O)(OCC)C(NC(=O)OCC(Cl)(Cl)Cl)n1nnc(C(=O)OC)c1C(=O)OC (configuration not stated)
2. Nc1c(Cl)[nH]c(C(F)(F)F)nc1=S
3. O=C1c2cc(Br)ccc2NC1(c1c[nH]c2ccccc12)c1c[nH]c2ccccc12
4. O=C(C[P+](c1ccccc1)(c1ccccc1)c1ccccc1)c1ccc(Br)cc1
5. Cc1cccc(N2C(=O)c3ccccc3C2(c2ccccc2)N2CCCCC2)c1 (configuration not stated)

Completion:
[-3, -7, 98, 22, 2]

Quick batch: growth inhibition for everything below.
1. Oc1cccc2ccc(/C=C/c3ccccn3)nc12
2. CC(=O)Nc1ccc(S(=O)(=O)/N=C2\C=CC(=O)c3ccccc32)cc1
3. COc1ccc2c(Cc3ccc(O)cc3)cncc2c1O
4. CC(C)C(Sc1nc(-c2ccccc2)c(-c2ccccc2)[nH]1)c1n[nH]c(=S)n1-c1ccccc1 (configuration not stated)

Completion:
-3
-9
5
-24

Provide each entry's growth inhibition from the list below.
1. CCOc1ccccc1/C=C1\NC(=O)N(/C=C2\C(=O)Oc3ccccc3C2=O)C1=O
2. O=C(NNc1ccccc1)C(O)C(=O)C(O)C(O)C(O)CO (configuration not stated)

Completion:
[6, -2]

Below are some compounds; for each one, tell me its growth inhibition.
1. O=C(O)/C=C\C(=O)Nc1ccc2c(c1)C(=O)c1cc(F)ccc1-2
2. O=C(CCl)Nc1cc(Cl)ccc1Cl
3. O=C(NCc1ccc(F)cc1)c1ccc(C(=O)NCc2ccc(F)cc2)cc1
4. CCCCCCSc1nc2ccc(N=Cc3ccccc3O)cc2s1
5. O=C(C(=O)n1ncc(Cl)c(Cl)c1=O)n1ncc(Cl)c(Cl)c1=O
6. O=[N+]([O-])c1ccccc1OS(=O)(=O)c1ccccc1

Completion:
[-6, 5, 2, 58, -6, -25]

Working through the 2 compounds below one at a time, give growth inhibition for each.
1. S=C(CSc1ccccc1)Nc1cccc2ccccc12
2. CCCCCCCCCCCCCCCCOc1ccc(S(=O)(=O)N/N=c2/sc3ccc(S(=O)(=O)O)cc3n2C)cc1C(=O)O

Completion:
1: -11; 2: 16
